assay: Inhibition of CRM1 in human HCT-15 cells assessed as reduction in cell viability incubated for 24 hrs
measure-name: IC50 (nM)

>>> numeric_readout("[O-][S@@+](/C=C/CCN=C=S)c1cc(C(F)(F)F)cc(C(F)(F)F)c1")
151
